tested on: OVCAR-5; assay: NCI tumour cell line growth inhibition, 48 h
Active and inactive are the calls of the source. No stated cut-off is given here; in the data, active = GI50 up to about 1.1 µM and inactive = higher.
Returns: one label drawn from yes (1) = active, no (0) = inactive

Examples with answers:
{"Molecule": "O=C1C(=CNC(=S)c2ccccc2)C(=O)c2ccccc21", "Label Value": "no (0)"}
{"Molecule": "Cc1ccc(O)c(Cc2nc3ccccc3nc2-c2cccc(Br)c2)c1", "Label Value": "no (0)"}
{"Molecule": "CC1(C)OB(O)OC1(C)C", "Label Value": "no (0)"}

Lab note: next molecule to report on.
Any idea what this test logged for COc1c(Br)cc(Br)c(OC)c1-c1ccc[nH]1 ? no (0)

---

test system: HT-29; assay: NCI tumour cell line growth inhibition, 48 h
Calls of active or inactive are those of the source. Rule as the data show it: active = GI50 up to about 1.1 µM and inactive = higher.
Recorded Endpoint: GI50

{"Compound": "CCCCCCCCCCCC(=O)OCCOCCOCCOCCOCCOCc1ccc(OC)cc1", "Target Under Test": "HT-29", "Value Reported": "> 100 µM (inactive)"}
{"Compound": "Nc1nnnn1CCO", "Target Under Test": "HT-29", "Value Reported": "> 100 µM (inactive)"}
{"Compound": "C=C(CCCO)[C@@H]1CC[C@@](C)(O)[C@H]1C", "Target Under Test": "HT-29", "Value Reported": "> 100 µM (inactive)"}
{"Compound": "O=C(Nc1ccc([N+](=O)[O-])cc1[N+](=O)[O-])C(=O)C(C(=O)c1ccc2ccccc2c1)C1OC(=O)c2ccccc21 (stereo unspecified)", "Target Under Test": "HT-29", "Value Reported": "16.7 µM (inactive)"}

In one line, give reported GI50 of the entry CCCNC(C#N)c1ccc(OCCCCCCCCCCOc2ccc(C(C#N)NCCC)cc2)cc1 (stereo unspecified) . 51.1 µM (inactive)

In one line, give reported GI50 of the entry CC(C)(C)OC(=O)N(O)[C@@H]1CC[C@H](n2cnc3c(N)ncnc32)C1 . > 100 µM (inactive)

In one line, give reported GI50 of the entry O=C1CC2(CCC(O)(c3ccco3)C(C(=O)c3ccco3)C2)C(=O)c2ccccc2N1 (stereo unspecified) . > 100 µM (inactive)

In one line, give reported GI50 of the entry Nc1nc(SCC(=O)c2ccc(Br)cc2)c2nc[nH]c2n1 . 44.6 µM (inactive)

In one line, give reported GI50 of the entry [C-]#[N+]C(=C\c1ccc(O)cc1)/C(=C/c1ccc(O)cc1)[N+]#[C-] . 10.9 µM (inactive)

In one line, give reported GI50 of the entry CCS(=O)(=O)CCn1cnc2c1c(=O)n(C)c(=O)n2C . > 100 µM (inactive)

In one line, give reported GI50 of the entry COC(=O)C(C)(Cc1ccc2c(c1)nnn2C(C)=O)NC(C)=O (stereo unspecified) . > 100 µM (inactive)

---

system: NCI-H460; assay: NCI tumour cell line growth inhibition, 48 h
The source made the active and inactive calls. No stated cut-off is given here; in the data, active = GI50 up to about 1.1 µM and inactive = higher. Starred links: 1 amine or outer side, 2 acyl side, 3 side chain; linkers in the order of their positions; H or OH if unused. Positions of bridges follow the written chain, without caps; N, C: chain ends. Non-standard residues stand in square brackets, D forms with d. Residues, ends and D or L forms follow the SMILES beside them. ξ: configuration not given here. *: point of attachment. γ4hArg(2R,3R-(OH)2) = N=C(N)NCCC[C@H](N[*:1])[C@@H](O)[C@@H](O)C(=O)[*:2]; Gln(3S,4R-Me2) = C[C@H]([C@H](N)C(=O)O)[C@@H](C)C(N)=O; X50 = CC(C)C[C@H](C)[C@@H](O)[C@@H](C)C(=O)*; X51 = COC(c1ccc(O)cc1)C(N[*:1])C(=O)[*:2]; NMeQ = CN[C@@H](CCC(N)=O)C(=O)O; Thr(3ξ) = CC(O)[C@H](N)C(=O)O; NMeA = CN[C@@H](C)C(=O)O
Returns: one label drawn from Yes for active, No for inactive

Examples with answers:
{"Compound": "CCOC1=C(c2ccccc2)N2CCCCC2O1 (stereo not drawn)", "Label Value": "No"}
{"Compound": "COC(c1ccc(O)cc1)C1NC(=O)[C@H](CCC(N)=O)N(C)C(=O)[C@H](CC(C)C)NC(=O)[C@@H](CCCN=C(N)N)NC(=O)[C@H](C(C)O)NC(=O)[C@@H](NC(=O)[C@@H](NC(=O)[C@H](O)[C@H](O)[C@H](CCCN=C(N)N)NC(=O)[C@H](C)NC(=O)[C@H](C)[C@H](O)[C@@H](C)CC(C)C)[C@@H](C)[C@@H](C)C(N)=O)[C@@H](C)OC(=O)[C@H](C)N(C)C1=O (stereo partly drawn) (X50-A[γ4hArg(2R,3R-(OH)2)][Gln(3S,4R-Me2)]T[Thr(3ξ)][dR]L[NMeQ][X51][NMeA]; ester 4-C)", "Label Value": "Yes"}
{"Compound": "COC1OC(Cc2nnc(C)o2)C(OCc2ccccc2)C(OCc2ccccc2)C1OCc1ccccc1 (stereo not drawn)", "Label Value": "No"}
{"Compound": "CN1CCN(Cn2nc(COc3ccccc3Cl)n(/N=C/c3ccc(-c4ccc(Cl)cc4Cl)o3)c2=S)CC1", "Label Value": "No"}
{"Compound": "Cc1ccc(-n2c(Cn3nnc(-c4cccnc4)n3)nn(C3OC(COC(=O)c4ccccc4)C(OC(=O)c4ccccc4)C3OC(=O)c3ccccc3)c2=S)cc1 (stereo not drawn)", "Label Value": "No"}

Any idea what this test logged for CC(C)(C)c1ccc2c(c1)C(=O)c1ccccc1C2=O ? No

Any idea what this test logged for CC1(C)C(=O)/C=C\C(=O)C(C)(C)C2=CC=C(O2)C(C)(C)C(=O)C(Br)C(Br)C(=O)C(C)(C)C2=CC=C1O2 (stereo not drawn) ? No

Any idea what this test logged for CC(C)(C)OC(=O)N(O)[C@@H]1CC[C@H](n2cnc3c(N)ncnc32)C1 ? No

---

Entries annotated with measured GI50
tested on: SK-MEL-2; assay: NCI tumour cell line growth inhibition, 48 h
Active and inactive are the calls of the source. Cut-off read from the data, not from the text of the source: active = GI50 up to about 1.1 µM and inactive = higher.

{"Compound": "CCOC(=O)/C(C(=S)NCc1ccccc1)=C(/N)N1CCCC1", "GI50": "> 100 µM (inactive)"}
{"Compound": "C[C@@]12C[C@@H](c3ccccc3O1)N1Cc3ccccc3CSC1=N2", "GI50": "> 100 µM (inactive)"}
{"Compound": "CCOC(=O)C1CCCCN1C(=O)OCc1ccccc1 (stereo unspecified)", "GI50": "> 100 µM (inactive)"}
{"Compound": "CN1CC[C@]2(C)c3ccc(O)cc3CC3CCCC1C32C (stereo partly specified)", "GI50": "> 100 µM (inactive)"}
{"Compound": "C/C(CC(=O)NCCc1ccccc1)=N\\NS(=O)(=O)c1ccc(C)cc1", "GI50": "> 100 µM (inactive)"}

Retrieve GI50 on SK-MEL-2; query O=C(/C=C/c1ccccc1F)C(c1ccccc1)c1ccccc1 2.51 µM (inactive)

Retrieve GI50 on SK-MEL-2; query O=C(CSc1nc2ccc(I)cc2c(=O)n1Cc1ccccc1)NN1C(=O)c2ccccc2C1=O 10.8 µM (inactive)

Retrieve GI50 on SK-MEL-2; query CC1(C)C(=O)/C=C\C(=O)C(C)(C)C2=CC=C(O2)C(C)(C)C(=O)C(Br)C(Br)C(=O)C(C)(C)C2=CC=C1O2 (stereo unspecified) 99.1 µM (inactive)

Retrieve GI50 on SK-MEL-2; query COC1OC(Cc2nnc(C)o2)C(OCc2ccccc2)C(OCc2ccccc2)C1OCc1ccccc1 (stereo unspecified) 14.5 µM (inactive)

Retrieve GI50 on SK-MEL-2; query O=C1CC2(CCC(O)(c3ccco3)C(C(=O)c3ccco3)C2)C(=O)c2ccccc2N1 (stereo unspecified) > 100 µM (inactive)

Retrieve GI50 on SK-MEL-2; query CCCNC(C#N)c1ccc(OCCCCCCCCCCOc2ccc(C(C#N)NCCC)cc2)cc1 (stereo unspecified) 38.5 µM (inactive)

Retrieve GI50 on SK-MEL-2; query CC[N+](C)(CC)CCC(O)(c1ccccc1)c1ccccc1 > 100 µM (inactive)

Retrieve GI50 on SK-MEL-2; query C=C(Cl)C(C)(Cl)CCC(Br)C(C)(C)Cl (stereo unspecified) 19.3 µM (inactive)

Retrieve GI50 on SK-MEL-2; query COc1ccc(OC)c(NC(=O)C(=O)CC(=O)c2sc(-n3nc(-c4ccccc4)cc3-c3ccccc3)nc2C)c1 > 100 µM (inactive)

Retrieve GI50 on SK-MEL-2; query Cc1cn(C2CC(OC3CCCCO3)C(CO)O2)c(=O)[nH]c1=O (stereo unspecified) > 100 µM (inactive)

---

test system: NCI-H460; assay: NCI tumour cell line growth inhibition, 48 h
Calls of active or inactive are those of the source. Cut-off read from the data, not from the text of the source: active = GI50 up to about 1.1 µM and inactive = higher. Positions of bridges follow the written chain, without caps; N, C: chain ends. Non-standard residues stand in square brackets, D forms with d. Residues, ends and D or L forms follow the SMILES beside them. *: point of attachment. Cbz = O=C(OCc1ccccc1)*; Aib = CC(C)(N)C(=O)O; OBn = c1ccc(CO*)cc1; βAla = NCCC(=O)O
Returns: one label drawn from 1 (active), 0 (inactive)

{"Compound": "NC(c1ccccc1)(C(F)(F)F)P1(=O)OC(=O)c2ccccc2O1 (stereo not given)", "Label Value": 0}

Any idea what this test logged for CN(C)CCOC(=O)c1ccc(N)cc1 ? 0

Any idea what this test logged for CC1(C)NC(=O)C(NC(=O)C(CC(=O)OCc2ccccc2)NC(=O)OCc2ccccc2)CCCCNC(=O)CCNC1=O (stereo not given) (Cbz-D(OBn)K[Aib][βAla]; lactam 2-C; configuration not given here) ? 0

Any idea what this test logged for O=C1CSC(c2c[nH]c3ccccc23)N1c1cccc(Cl)c1 (stereo not given) ? 0
